The measured values listed here are drawn from paper PMC5662737.

Assayed System: T1, hDAXX 4HB F87A (Homo sapiens)
T1 chain: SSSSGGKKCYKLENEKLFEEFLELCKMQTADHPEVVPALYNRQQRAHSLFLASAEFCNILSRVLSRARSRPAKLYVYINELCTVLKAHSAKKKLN
Assay Overview: ITC
Endpoint: pKd
Kindly note that pKd refers to -log10 of the concentration in mol/L and answer with the value alone.

Query: Give me measured pKd, please, for this binder: NDPENRIAKKMLLEEIKANLSSDE (peptide, UniProt P46100 1265-1288, looked up, The limits 1265–1288 are printed for the DBM of the fusion construct; also called ATRX DBM; hATRX DBM; source: synthetic peptide (Tufts University Peptide Core Facility)) [human ATRX DAXX-binding motif (DBM) peptide, wild type]
Reply: 5.12
